Source listed as the Human Domainome abundance scans (Beltran et al. 2025).

B1: Ankyrin-3, residues 4094 to 4171; numbered along this chain, Q12955 (parent)
chain: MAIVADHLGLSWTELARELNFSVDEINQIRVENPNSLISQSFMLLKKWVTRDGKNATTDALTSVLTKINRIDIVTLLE

Variants of: B1
METHOD NOTES: abundance fitness (aPCA) (normalised: wild type 0, dead -1); higher = more abundant; growth selection in yeast, the domain comes from the species named
CONDITION SUMMARY: Homo sapiens
ASSAY ENDPOINT: abundance fitness
Please reply with the value in numeric form only.

Guide cases for abundance fitness, answers given:
>>> numeric_value("V31F")
-0.086
>>> numeric_value("A56V")
-0.037
>>> numeric_value("V64E")
0.001
>>> numeric_value("S39L")
-0.184
>>> numeric_value("T62F")
-0.175
>>> numeric_value("R51L")
-0.829

Fill blank: measured abundance fitness of the variant N35Y is ____.
-0.307

For the variant shown here, S11M , give the reported abundance fitness.
-0.94

Give the measured abundance fitness of N33L .
-0.755

abundance fitness for S39Q ?
0.087

Given P34H , state its recorded abundance fitness.
-0.268

# get_value(readout='abundance fitness', item= E14C )
-0.23

Could you tell me which abundance fitness is on file for E78Q ?
-0.397

Given the entry Q28Y , report its measured abundance fitness.
-0.298

// abundance fitness lookup, key: F42D
0.165

# input variant: D59G ; wanted: its abundance fitness
-0.011

Data request, read-out abundance fitness, for T57M
-0.394

Returns the measured abundance fitness for the input variant. Input: K46Q
0.124

Quick one: abundance fitness for D24S ?
-0.199

Returns the measured abundance fitness for the input variant. Input: L8C
-0.787

Suppose we examine the variant I68S ; what abundance fitness value has been reported?
-0.935
